# Test system: HIV strain r13037
# Run description: Antiviral spectrum, protease inhibitor resistant strain
# Assay type: cell-based
# Experimental context: Human immunodeficiency virus 1, strain r13037; L10I, M46I, I54V, L63P, A71T, V77I, V82A, L90M
Result type: log10 IC50 (log10 of the value in nM)
Log scale reminder: IC50 in nM, then log10 taken.

Query string: Query: log10 IC50; subject: CC(C)(C)NC(=O)[C@@H]1CN(Cc2cccnc2)CCN1C[C@@H](O)C[C@@H](Cc1ccccc1)C(=O)N[C@H]1c2ccccc2C[C@H]1O
Result string: 2.29

Query string: What would you report for CC(C)(C)NC(=O)[C@@H]1C[C@@H]2CCCC[C@@H]2CN1C[C@@H](O)[C@H](Cc1ccccc1)NC(=O)[C@H](CC(N)=O)NC(=O)c1ccc2ccccc2n1 ?
Result string: 1.44

Query string: What would you report for CC(C)CN(CC(O)C(Cc1ccccc1)NC(=O)OC1COC2OCCC12)S(=O)(=O)c1ccc2c(c1)OCO2 (stereo not drawn) ?
Result string: -0.30

Query string: What would you report for Cc1c(O)cccc1C(=O)N[C@@H](CSc1ccccc1)[C@H](O)CN1C[C@H]2CCCC[C@H]2C[C@H]1C(=O)NC(C)(C)C ?
Result string: 2.82

Query string: What would you report for CC(C)c1nc(CN(C)C(=O)N[C@H](C(=O)N[C@@H](Cc2ccccc2)C[C@H](O)[C@H](Cc2ccccc2)NC(=O)OCc2cncs2)C(C)C)cs1 ?
Result string: 3.43

Query string: What would you report for CC(C)CN(C[C@@H](O)[C@H](Cc1ccccc1)NC(=O)O[C@H]1CCOC1)S(=O)(=O)c1ccc(N)cc1 ?
Result string: 2.22
